system-name: T1, wild-type human Ang-2 (hAng-2-WT) (human, UniProt O15123 19-496)
T1 construct: called full-length wild-type; also called Full-length wild-type human Ang-2
T1 sequence: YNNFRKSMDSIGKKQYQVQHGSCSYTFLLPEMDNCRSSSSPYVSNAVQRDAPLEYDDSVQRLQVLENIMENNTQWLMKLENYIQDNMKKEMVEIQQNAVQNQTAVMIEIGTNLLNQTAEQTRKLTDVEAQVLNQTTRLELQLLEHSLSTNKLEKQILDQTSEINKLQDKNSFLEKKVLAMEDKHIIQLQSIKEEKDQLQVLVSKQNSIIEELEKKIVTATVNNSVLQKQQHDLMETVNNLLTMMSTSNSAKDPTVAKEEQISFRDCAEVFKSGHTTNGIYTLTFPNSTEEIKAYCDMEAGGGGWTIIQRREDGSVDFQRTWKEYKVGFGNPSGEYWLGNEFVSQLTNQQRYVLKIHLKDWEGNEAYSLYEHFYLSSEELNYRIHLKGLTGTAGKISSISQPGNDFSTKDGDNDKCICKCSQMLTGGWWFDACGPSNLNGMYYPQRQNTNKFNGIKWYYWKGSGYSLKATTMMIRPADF
measurement-notes: SPR, captured Ab
log10 T1/2 values by entry
Scale: decimal log of T1/2, T1/2 in h.

- H2M750N (antibody, V domains shown) VH: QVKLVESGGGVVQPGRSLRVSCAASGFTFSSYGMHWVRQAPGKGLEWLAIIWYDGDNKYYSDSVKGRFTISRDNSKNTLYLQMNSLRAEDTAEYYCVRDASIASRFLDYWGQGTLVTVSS VL: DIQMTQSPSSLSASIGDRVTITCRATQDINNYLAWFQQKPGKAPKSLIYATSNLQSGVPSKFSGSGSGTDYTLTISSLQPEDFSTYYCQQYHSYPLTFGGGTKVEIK: 1.22
- H1H750N (antibody, V domains shown) VH: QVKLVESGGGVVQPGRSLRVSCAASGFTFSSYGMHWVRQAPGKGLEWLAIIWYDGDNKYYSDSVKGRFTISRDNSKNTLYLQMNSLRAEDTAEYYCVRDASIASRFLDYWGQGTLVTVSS VL: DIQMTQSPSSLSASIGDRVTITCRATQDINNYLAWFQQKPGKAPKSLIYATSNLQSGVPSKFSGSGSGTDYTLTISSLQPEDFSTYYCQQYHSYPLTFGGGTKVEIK: 1.87
- H2M742N (antibody, V domains shown) VH: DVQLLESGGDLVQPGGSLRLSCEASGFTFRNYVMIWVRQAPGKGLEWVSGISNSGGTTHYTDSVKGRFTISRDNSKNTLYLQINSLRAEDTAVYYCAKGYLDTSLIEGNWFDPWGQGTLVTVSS VL: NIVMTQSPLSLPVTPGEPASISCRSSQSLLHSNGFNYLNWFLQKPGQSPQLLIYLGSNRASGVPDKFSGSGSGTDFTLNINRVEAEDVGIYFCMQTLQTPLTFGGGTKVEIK: 0.86
- H1H742N (antibody, V domains shown) VH: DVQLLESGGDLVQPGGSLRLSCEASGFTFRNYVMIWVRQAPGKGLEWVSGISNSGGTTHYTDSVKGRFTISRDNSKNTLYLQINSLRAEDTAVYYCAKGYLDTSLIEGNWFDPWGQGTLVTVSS VL: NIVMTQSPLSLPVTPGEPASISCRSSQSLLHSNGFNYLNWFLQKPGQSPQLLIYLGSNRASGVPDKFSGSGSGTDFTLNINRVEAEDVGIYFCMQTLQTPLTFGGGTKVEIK: 1.05
- H1H724N (antibody, V domains shown) VH: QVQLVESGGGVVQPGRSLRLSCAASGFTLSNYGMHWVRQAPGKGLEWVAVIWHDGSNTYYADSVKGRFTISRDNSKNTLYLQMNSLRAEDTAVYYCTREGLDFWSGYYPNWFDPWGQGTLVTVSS VL: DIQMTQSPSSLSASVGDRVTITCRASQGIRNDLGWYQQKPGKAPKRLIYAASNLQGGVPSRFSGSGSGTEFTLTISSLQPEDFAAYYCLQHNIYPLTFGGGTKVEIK: 1.17

Pending binder:
input: Return log10 T1/2 for the following binder: H1H744N (antibody, V domains shown) VH: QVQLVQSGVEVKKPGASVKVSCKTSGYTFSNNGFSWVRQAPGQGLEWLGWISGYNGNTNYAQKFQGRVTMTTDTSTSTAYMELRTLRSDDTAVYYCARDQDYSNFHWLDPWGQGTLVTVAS VL: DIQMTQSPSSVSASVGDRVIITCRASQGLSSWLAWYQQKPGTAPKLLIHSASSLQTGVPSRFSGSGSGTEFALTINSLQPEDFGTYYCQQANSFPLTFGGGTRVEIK
output: 1.14
